Assay: Metabolic stability in mouse liver microsomes assessed as compound remaining at 1 uM after 30 mins LC-MS analysis
Type: ADME, Microsome
Details: liver microsomes, read-out: Stability
Measured Property: remaining at 0.5 h, 1 µM (%)
Numbers only here, please. The scale is %.

Below, each entry is followed by its recorded remaining at 0.5 h, 1 µM result.
O=C(NCc1ccc(S(=O)(=O)c2ccccc2)cc1)c1cc2ccncc2s1 ... 21
O=C(NCc1ccc(S(=O)(=O)c2cccc(C(F)(F)F)c2)cc1)c1ccc2nccn2c1 ... 17
O=C(NCc1ccc(S(=O)(=O)c2cc(F)cc(F)c2)cc1)c1cc2ccncc2o1 ... 12
O=C(NCc1ccc(S(=O)(=O)c2cccc(C(F)(F)F)c2)cc1)c1cc2ccncc2s1 ... 35

Prompt line: Suppose we examine the compound O=C(NCc1ccc(S(=O)(=O)c2ccccc2)cc1)c1ccc2ncncc2c1 ; what remaining at 0.5 h, 1 µM value has been reported?
Response line: 3.7
